target: rat NaPi-2b (Rattus norvegicus); assay: Sodium-dependent phosphate uptake of Xenopus oocytes which expressed NaPi-2b (32P); conditions: Xenopus oocytes expressing rat NaPi-2b, 32P radioactive phosphorus; read-out: IC50 (phosphate uptake inhibitory activity)
Where a name gives a salt, the structure may show the parent alone.
MEASUREMENT NAME: IC50 (µM)

Example compounds with recorded IC50:
Which value of IC50 has been reported for CCN(CC)CCN(Cc1cccc(C(=O)Nc2sc3c(c2C(=O)N/N=C/c2ccc(C)cc2)CCCC3)c1)C(C)=O in the records?
1.1

Which value of IC50 has been reported for Cc1ccc(/C=N/NC(=O)c2cc(Br)ccc2NC(=O)c2ccccn2)cc1 [Compound 356, hydrochloride] in the records?
0.17

Which value of IC50 has been reported for COc1ccc(C(=O)Nc2ccccc2C(=O)N/N=C/c2cccs2)cc1OC in the records?
9.88

[A] COc1ccc(/C=N/NC(=O)c2cc(Br)ccc2NC(=O)c2ccc(CN3CCC(N4CCCCC4)CC3)cc2)cc1
[B] COc1ccc(C(=O)Nc2ccccc2C(=O)N/N=C/c2cccc(F)c2)cc1OC
[C] O=C(Nc1ccc(Cl)cc1C(=O)N/N=C/c1ccc(Cl)c(C(F)(F)F)c1)c1ccncc1
Rank order required: IC50, descending. List the labels in the requested order.
C, A, B
(C: 7.36 µM, A: 3.39 µM, B: 1.41 µM)

* * *

Biological target: rat NaPi-2b (Rattus norvegicus, UniProt Q9JJ09)
Construct: expressed in transfected cells; host or cells: Xenopus oocytes injected with cRNA
Sequence (Q9JJ09 1-695): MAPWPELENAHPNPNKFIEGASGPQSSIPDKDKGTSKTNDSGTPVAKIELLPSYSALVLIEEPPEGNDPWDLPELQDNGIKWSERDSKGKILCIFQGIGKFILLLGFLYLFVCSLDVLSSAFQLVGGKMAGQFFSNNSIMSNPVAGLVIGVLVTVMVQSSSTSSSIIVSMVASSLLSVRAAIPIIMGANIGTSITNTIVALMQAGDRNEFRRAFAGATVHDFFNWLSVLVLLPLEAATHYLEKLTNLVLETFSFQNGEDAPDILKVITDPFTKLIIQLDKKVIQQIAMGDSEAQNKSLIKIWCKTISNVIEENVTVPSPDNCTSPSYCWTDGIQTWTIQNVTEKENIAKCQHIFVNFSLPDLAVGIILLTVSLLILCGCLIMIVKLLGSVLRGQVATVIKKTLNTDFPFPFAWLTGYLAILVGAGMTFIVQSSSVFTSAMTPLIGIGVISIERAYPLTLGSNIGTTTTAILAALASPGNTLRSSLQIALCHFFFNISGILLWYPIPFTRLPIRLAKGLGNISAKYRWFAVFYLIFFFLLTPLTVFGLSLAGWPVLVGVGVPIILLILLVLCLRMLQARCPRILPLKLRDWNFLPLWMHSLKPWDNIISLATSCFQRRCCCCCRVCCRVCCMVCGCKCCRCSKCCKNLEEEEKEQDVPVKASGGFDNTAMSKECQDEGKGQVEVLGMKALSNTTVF
Experiment: Sodium-dependent phosphate uptake of Xenopus oocytes which expressed NaPi-2b (32P)
Format: cell-based
Details: Xenopus oocytes expressing rat NaPi-2b, 32P radioactive phosphorus; read-out: IC50 (phosphate uptake inhibitory activity)
pIC50: −log10 of the molar value.
MEASUREMENT NAME: pIC50

Which value of pIC50 has been reported for Cc1cc(/C=N/NC(=O)c2ccccc2NC(=O)c2ccncc2)oc1C in the records?
5.04

[P] Cc1ccc(/C=N/NC(=O)c2cc(N3CCCCC3)ccc2NC(=O)c2cccc(CN3CCc4nc5ncccc5cc4C3)c2)cc1
[Q] COc1ccc(/C=N/NC(=O)c2cc(N3CCOCC3)ccc2NC(=O)c2ccc(OC)c(OC)c2)cc1
[R] CN(CCO)Cc1cccc(C(=O)Nc2ccc(Cl)cc2C(=O)N/N=C/c2cccc(F)c2)c1
Rank order required: pIC50, descending. List the labels in the requested order.
P, R, Q
(P: 6.30, R: 6.02, Q: 5.06)

* * *

target: rat NaPi-2b (Rattus norvegicus, UniProt Q9JJ09); assay: Sodium-dependent phosphate uptake of Xenopus oocytes which expressed NaPi-2b (32P); settings: Xenopus oocytes expressing rat NaPi-2b, 32P radioactive phosphorus; read-out: IC50 (phosphate uptake inhibitory activity)
pIC50: −log10 of the molar value.
MEASUREMENT NAME: pIC50

Which value of pIC50 has been reported for CCN(CCO)Cc1ccc(C(=O)Nc2ccc(Cl)cc2C(=O)N/N=C/c2cccc(OC)c2)cc1 [Compound 438] in the records?
4.58

[A] COc1ccc(C(=O)Nc2ccc(Br)cc2C(=O)N/N=C/c2cccc(C)c2)cc1OC [Compound 31]
[B] CCN(CC)CCN(CCN(CC)CC)Cc1cccc(C(=O)Nc2ccc(N3CCCCC3)cc2C(=O)N/N=C/c2ccc(C)cc2)c1 [Compound 906]
Endpoint returns the identifier whose pIC50 is numerically larger, either A or B . Answer by quoting the chosen item's label.
A
(A: 6.24, B: 5.74)

* * *

target: rat NaPi-2b (Rattus norvegicus); assay: Sodium-dependent phosphate uptake of Xenopus oocytes which expressed NaPi-2b (32P); conditions: Xenopus oocytes expressing rat NaPi-2b, 32P radioactive phosphorus; read-out: IC50 (phosphate uptake inhibitory activity)
pIC50: −log10 of the molar value. Structures can show the parent of a compound that is named as a salt.
MEASUREMENT NAME: pIC50

Example compounds with recorded pIC50:
Under rat NaPi-2b (Rattus norvegicus): pIC50 value of O=C(Nc1ccc(Br)cc1C(=O)N/N=C/C=C/c1ccccc1)c1ccncc1 ?
5.31

Under rat NaPi-2b (Rattus norvegicus): pIC50 value of CCN(CC)CCN(C)Cc1cccc(C(=O)Nc2ccc(OCCOC)cc2C(=O)N/N=C/c2ccc(Cl)c(C(F)(F)F)c2)c1 ?
5.92

[a] Cc1ccc(/C=N/NC(=O)c2cc(Br)ccc2NC(=O)c2cccnc2)cc1 [Compound 252, hydrochloride]
[b] O=C(Nc1sc2c(c1C(=O)N/N=C/c1ccc(Cl)c(C(F)(F)F)c1)CCCC2)c1cccc(CN2CCC(CO)CC2)c1
I would appreciate it if you could say which entry, a or b , has the lower pIC50 value. Answer by quoting the chosen item's label.
b
(b: 5.43, a: 5.83)

* * *

molecular target: UniProt:Q9JJ09; assay: Sodium-dependent phosphate uptake of Xenopus oocytes which expressed NaPi-2b (32P); details: Xenopus oocytes expressing rat NaPi-2b, 32P radioactive phosphorus; read-out: IC50 (phosphate uptake inhibitory activity)
MEASUREMENT NAME: IC50 (µM)

Which value of IC50 has been reported for Cc1ccc(/C=N/NC(=O)c2c(NC(=O)c3cccc(CN4CCC(N5CCCCC5)CC4)c3)sc3c2CCCC3)cc1C in the records?
2.08

[a] O=C(Nc1ccccc1C(=O)N/N=C/c1cccc(F)c1)c1ccccn1
[b] CC(O)CN(Cc1cccc(C(=O)Nc2sc3ccccc3c2C(=O)N/N=C/c2cccc(F)c2)c1)CC(C)O (centres unmarked)
[c] O=C(Nc1ccc(Br)cc1C(=O)N/N=C/c1cccc(F)c1)c1ccc(CN2CCC(N3CCCCC3)CC2)cc1
[d] COc1ccc(C(=O)Nc2ccc(Br)cc2C(=O)NNCc2ccc(C)cc2)cc1OC
[e] O=C(Nc1ccccc1C(=O)N/N=C/c1cccc(F)c1)c1cccnc1
Rank order required: IC50, descending. List the labels in the requested order.
e, d, c, b, a

* * *

target: human NaPi-2a (Homo sapiens, UniProt Q06495); assay: Sodium-dependent phosphate uptake of Xenopus oocytes which expressed NaPi-2a (32P); details: phosphate uptake, Xenopus oocytes expressing human NaPi-2a; five concentration levels
Sequence (Q06495 whole entry): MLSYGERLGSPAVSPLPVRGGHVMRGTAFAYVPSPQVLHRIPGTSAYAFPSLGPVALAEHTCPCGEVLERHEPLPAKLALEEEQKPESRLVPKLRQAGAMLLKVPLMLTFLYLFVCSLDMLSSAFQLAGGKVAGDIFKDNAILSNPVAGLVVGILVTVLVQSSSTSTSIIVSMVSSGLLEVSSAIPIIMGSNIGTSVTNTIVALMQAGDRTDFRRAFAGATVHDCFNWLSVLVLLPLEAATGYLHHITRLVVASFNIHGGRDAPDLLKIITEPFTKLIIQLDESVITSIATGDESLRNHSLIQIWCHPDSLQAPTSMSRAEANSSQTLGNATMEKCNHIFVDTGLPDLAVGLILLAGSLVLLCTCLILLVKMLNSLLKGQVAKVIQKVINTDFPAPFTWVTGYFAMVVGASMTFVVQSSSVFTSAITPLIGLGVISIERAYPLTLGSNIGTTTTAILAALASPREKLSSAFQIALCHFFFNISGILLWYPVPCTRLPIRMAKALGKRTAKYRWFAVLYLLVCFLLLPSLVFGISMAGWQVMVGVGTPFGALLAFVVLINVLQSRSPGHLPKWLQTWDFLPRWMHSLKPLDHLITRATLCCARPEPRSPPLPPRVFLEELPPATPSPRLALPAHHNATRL
pIC50: −log10 of the molar value.
MEASUREMENT NAME: pIC50

Example compounds with recorded pIC50:
Under human NaPi-2a (Homo sapiens, UniProt Q06495): pIC50 value of CC(O)CN(Cc1cccc(C(=O)Nc2sc3c(c2C(=O)N/N=C/c2ccc(Cl)c(C(F)(F)F)c2)CCCC3)c1)CC(C)O (centres unmarked) ?
5.61

Under human NaPi-2a (Homo sapiens, UniProt Q06495): pIC50 value of O=C(Nc1ccc(N2CCCCC2)cc1C(=O)N/N=C/c1cccc(F)c1)c1cccc(CSCCO)c1 ?
5.70

Under human NaPi-2a (Homo sapiens, UniProt Q06495): pIC50 value of CC(O)CN(Cc1cccc(C(=O)Nc2sc3c(c2C(=O)N/N=C/c2ccc(F)cc2)CCCC3)c1)CC(C)O (centres unmarked) ?
4.89

Under human NaPi-2a (Homo sapiens, UniProt Q06495): pIC50 value of O=C(O)CCSCc1cccc(C(=O)Nc2ccc(N3CCCCC3)cc2C(=O)N/N=C/c2ccc(Cl)c(C(F)(F)F)c2)c1 ?
5.85

Under human NaPi-2a (Homo sapiens, UniProt Q06495): pIC50 value of Cc1ccc(/C=N/NC(=O)c2c(C)csc2NC(=O)c2cccc(CN3CCC4(CC3)OCCO4)c2)cc1C ?
5.19

[I] O=C(Nc1ccc(N2CCCCC2)cc1C(=O)N/N=C/c1ccc(Cl)c(C(F)(F)F)c1)c1cccc(CNCCN(CCO)CCO)c1
[II] Cc1ccc(/C=N/NC(=O)c2c(NC(=O)c3cccc(CN4CCC(O)CC4)c3)sc3c2CCCC3)cc1
[III] Cc1ccc(/C=N/NC(=O)c2cc(N3CCCCC3)ccc2NC(=O)c2cccc(CN3CCc4nc5ncccc5cc4C3)c2)cc1C
Rank the items in ascending order with respect to pIC50. List the labels in the requested order.
II, III, I
(II: 4.77, III: 5.29, I: 5.50)

[1] Cc1ccc(/C=N/NC(=O)c2cc(Br)ccc2NC(=O)c2ccc(CSCCO)cc2)cc1
[2] COc1ccc(/C=N/NC(=O)c2c(C)csc2NC(=O)c2cccc(CN3CCN(c4ncccn4)CC3)c2)cc1
[3] Cc1ccc(/C=N/NC(=O)c2c(NC(=O)c3cccc(CN4CCC(CO)CC4)c3)sc3c2CCCC3)cc1C
Rank order required: pIC50, descending. List the labels in the requested order.
1, 3, 2
